Assay: self-splicing fitness, log relative to wild type (ln ratio); higher = more splicing; Tetrahymena group I intron in knt gene, E. coli kanamycin selection, DiMSum; sequences stand for … in CUCUCU…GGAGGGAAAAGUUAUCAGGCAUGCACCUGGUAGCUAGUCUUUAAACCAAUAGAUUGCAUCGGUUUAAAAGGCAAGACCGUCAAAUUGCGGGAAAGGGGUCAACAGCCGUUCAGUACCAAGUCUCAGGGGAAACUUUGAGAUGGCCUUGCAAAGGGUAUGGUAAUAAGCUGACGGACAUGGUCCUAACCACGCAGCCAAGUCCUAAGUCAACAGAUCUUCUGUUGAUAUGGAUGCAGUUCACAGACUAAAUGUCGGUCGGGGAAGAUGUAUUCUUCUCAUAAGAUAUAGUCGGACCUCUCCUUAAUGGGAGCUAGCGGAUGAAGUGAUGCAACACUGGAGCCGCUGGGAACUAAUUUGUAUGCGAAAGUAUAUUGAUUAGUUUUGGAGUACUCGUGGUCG;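 also: selection with 25 µg/mL kanamycin versus none on LB agar overnight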
Settings: 30 °C
Parameter threshold = -2. Response is criterion met when self-splicing fitness (ln) meets or exceeds it, else criterion not met.

>>> classification("AUCCAGCAAUAUUACGGGAG")
"criterion met"
>>> classification("CUGAAGCAAUAUUACGAAUA")
"criterion not met"
>>> classification("GUCGAGCAAUAUUACGUACU")
"criterion not met"
>>> classification("CUCGAGCAAUAUUACGUCCU")
"criterion not met"
>>> classification("AACAAGCAAUAUUACGCGGA")
"criterion not met"
>>> classification("CAAAAGCAAUAUUACGCGGA")
"criterion not met"
>>> classification("UACCAGCAAUAUUACGACCC")
"criterion not met"
>>> classification("UAUAAGCAAUAUUACGGUUA")
"criterion met"
>>> classification("GAAGAGCAAUAUUACGUCUC")
"criterion not met"
>>> classification("UUGCAGCAAUAUUACGUUAG")
"criterion met"
>>> classification("GGUUAGCAAUAUUACGAUGA")
"criterion met"
>>> classification("UAUGAGCAAUAUUACGGAGG")
"criterion not met"
>>> classification("UACUAGCAAUAUUACGUAAG")
"criterion not met"
>>> classification("ACGAAGCAAUAUUACGUAUA")
"criterion not met"
>>> classification("GUGCAGCAAUAUUACGUGCG")
"criterion not met"
>>> classification("CUCGAGCAAUAUUACGCUUU")
"criterion not met"
>>> classification("GGGGAGCAAUAUUACGAACA")
"criterion met"
>>> classification("CAAAAGCAAUAUUACGUAAA")
"criterion met"
>>> classification("ACGAAGCAAUAUUACGGUAC")
"criterion not met"
>>> classification("UCAAAGCAAUAUUACGCGAA")
"criterion met"
>>> classification("CCUAAGCAAUAUUACGUCGG")
"criterion not met"
>>> classification("AGUGAGCAAUAUUACGAUAU")
"criterion not met"
>>> classification("CGGCAGCAAUAUUACGUGGG")
"criterion not met"
>>> classification("AUGGAGCAAUAUUACGACCU")
"criterion met"
>>> classification("UCAGAGCAAUAUUACGUUAU")
"criterion not met"
>>> classification("ACCUAGCAAUAUUACGGCGA")
"criterion met"
>>> classification("AAUAAGCAAUAUUACGCUAG")
"criterion met"
>>> classification("GCCCAGCAAUAUUACGCCUA")
"criterion met"
>>> classification("ACAAAGCAAUAUUACGAAAA")
"criterion not met"
>>> classification("GAUAAGCAAUAUUACGUGUU")
"criterion not met"
>>> classification("AAACAGCAAUAUUACGGUAU")
"criterion not met"
>>> classification("UGGCAGCAAUAUUACGAACC")
"criterion met"
>>> classification("AACAAGCAAUAUUACGUACA")
"criterion met"
